Provenance of the data: patent US20210277110A1

# TESTED_ON: T1, Extracellular domain of human PD1 (huPD1-ECD) (human, UniProt Q15116 25-169, biotinylated in the ligand inhibition assay (sites not given))
# T1 construct: Expressed with a hexahistidine tag or as Fc fusion; also called biotinylated PD-1
# ASSAY_DETAILS: MSD ligand inhibition, competitor coated cynoPDL1-ECD
READOUT_LABEL: percentage ligand not blocked at 1 µg/ml (%)
// units = %; emit number, no label

{"BINDER": "PD1B175 (antibody, V domains shown, Tested as IgG2sigma; also called PD1H163/PH9L3) VH: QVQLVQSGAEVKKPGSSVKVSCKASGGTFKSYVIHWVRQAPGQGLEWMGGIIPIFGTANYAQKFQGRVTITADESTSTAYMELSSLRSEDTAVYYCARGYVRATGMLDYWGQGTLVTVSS VL: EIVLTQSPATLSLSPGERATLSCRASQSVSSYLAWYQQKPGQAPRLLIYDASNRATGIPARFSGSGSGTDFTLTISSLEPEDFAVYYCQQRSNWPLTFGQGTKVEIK", "UNIT_LABEL": "%", "percentage ligand not blocked at 1 µg/ml": 6}
{"BINDER": "PD1B71 (antibody, V domains shown, Tested as IgG2sigma/kappa; also called PD1H108/PH9L3) VH: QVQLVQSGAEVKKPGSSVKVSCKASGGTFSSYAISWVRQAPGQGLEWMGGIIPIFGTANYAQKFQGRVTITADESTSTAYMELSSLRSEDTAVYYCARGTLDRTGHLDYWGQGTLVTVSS VL: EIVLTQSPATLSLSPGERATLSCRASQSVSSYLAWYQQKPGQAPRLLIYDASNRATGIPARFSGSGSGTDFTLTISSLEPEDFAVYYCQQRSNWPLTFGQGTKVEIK", "UNIT_LABEL": "%", "percentage ligand not blocked at 1 µg/ml": 6}
{"BINDER": "PD1B160 (antibody, human IgG2, kappa, V domains shown, IgG2sigma/kappa; VH 42, VL 51; also called PD1H131/PD1L101) VH: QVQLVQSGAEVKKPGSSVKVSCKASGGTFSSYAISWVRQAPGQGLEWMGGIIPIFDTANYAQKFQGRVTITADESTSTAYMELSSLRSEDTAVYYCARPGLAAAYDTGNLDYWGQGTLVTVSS VL: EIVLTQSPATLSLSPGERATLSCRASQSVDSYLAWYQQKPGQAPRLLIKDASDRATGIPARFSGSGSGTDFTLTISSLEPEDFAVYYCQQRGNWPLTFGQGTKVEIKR", "UNIT_LABEL": "%", "percentage ligand not blocked at 1 µg/ml": 4}
{"BINDER": "PD1B11 (antibody, V domains shown, Tested as IgG2sigma/kappa; also called PD1H3/PH9L3) VH: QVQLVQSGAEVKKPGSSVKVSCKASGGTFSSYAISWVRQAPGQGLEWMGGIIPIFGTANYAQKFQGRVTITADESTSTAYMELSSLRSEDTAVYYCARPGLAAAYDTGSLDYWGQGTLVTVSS VL: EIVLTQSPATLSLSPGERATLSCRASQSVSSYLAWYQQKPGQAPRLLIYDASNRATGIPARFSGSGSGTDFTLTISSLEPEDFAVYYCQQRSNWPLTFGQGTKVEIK", "UNIT_LABEL": "%", "percentage ligand not blocked at 1 µg/ml": 5}
{"BINDER": "PD1B183 (antibody, human IgG2, kappa, V domains shown, IgG2sigma/kappa; VH 43, VL 54; also called PD1H3/PD1L109) VH: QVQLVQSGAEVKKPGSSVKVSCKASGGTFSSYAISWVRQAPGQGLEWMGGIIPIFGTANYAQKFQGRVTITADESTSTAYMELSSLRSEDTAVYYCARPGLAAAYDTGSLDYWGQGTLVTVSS VL: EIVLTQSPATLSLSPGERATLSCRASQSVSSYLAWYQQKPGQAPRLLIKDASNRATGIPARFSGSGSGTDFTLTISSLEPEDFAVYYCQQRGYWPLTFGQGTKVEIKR", "UNIT_LABEL": "%", "percentage ligand not blocked at 1 µg/ml": 5}

For PD1B164 (antibody, human IgG2, kappa, V domains shown, IgG2sigma/kappa; VH 42, VL 53; also called PD1H131/PD1L71) VH: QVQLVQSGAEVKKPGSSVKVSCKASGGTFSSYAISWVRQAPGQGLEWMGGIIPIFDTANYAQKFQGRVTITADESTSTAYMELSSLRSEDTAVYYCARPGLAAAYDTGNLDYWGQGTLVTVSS VL: EIVLTQSPATLSLSPGERATLSCRASQSVRSYLAWYQQKPGQAPRLLIYDASYRATGIPARFSGSGSGTDFTLTISSLEPEDFAVYYCQQRDYWPLTFGQGTKVEIKR the binder record lists percentage ligand not blocked at 1 µg/ml as 6

For PD1B70 (antibody, V domains shown, Tested as IgG2sigma/kappa; also called PD1H107/PH9L3) VH: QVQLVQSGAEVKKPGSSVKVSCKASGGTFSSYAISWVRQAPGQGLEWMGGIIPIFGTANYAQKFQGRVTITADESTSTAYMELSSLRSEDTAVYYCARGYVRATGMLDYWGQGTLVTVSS VL: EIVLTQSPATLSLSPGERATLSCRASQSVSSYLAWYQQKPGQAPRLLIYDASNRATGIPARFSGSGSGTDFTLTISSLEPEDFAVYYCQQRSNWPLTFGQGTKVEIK the binder record lists percentage ligand not blocked at 1 µg/ml as 6
